Target: UniProt:P11712
Sequence (P11712 whole entry): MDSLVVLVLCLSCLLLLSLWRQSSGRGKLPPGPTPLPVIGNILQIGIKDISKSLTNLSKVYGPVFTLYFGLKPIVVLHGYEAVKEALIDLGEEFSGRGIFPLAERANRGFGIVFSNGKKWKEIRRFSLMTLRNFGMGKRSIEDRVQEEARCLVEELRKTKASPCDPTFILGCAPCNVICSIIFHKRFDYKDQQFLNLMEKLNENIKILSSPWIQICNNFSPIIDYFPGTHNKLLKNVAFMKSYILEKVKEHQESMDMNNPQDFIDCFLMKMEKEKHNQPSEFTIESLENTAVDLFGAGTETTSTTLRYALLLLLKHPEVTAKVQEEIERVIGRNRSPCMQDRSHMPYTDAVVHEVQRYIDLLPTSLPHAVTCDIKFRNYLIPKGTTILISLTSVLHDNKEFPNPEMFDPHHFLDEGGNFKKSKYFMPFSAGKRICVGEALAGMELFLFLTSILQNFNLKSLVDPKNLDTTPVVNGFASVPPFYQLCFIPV
Assay: CYP enzyme inhibition in pooled human liver microsomes, CYP2C9
Settings: human, microsomes, Enzyme activity (% inhibition), 30 Minutes Pre-incubation without NADPH, CYP2C9; 30 μM; probe Diclofenac; PHLM

>  <smiles.string>
COC[C@H](NC(=O)c1ccn(S(C)(=O)=O)c1)C(=O)Nc1nc(-c2cccc(N3C[C@@H](C)O[C@@H](C)C3)n2)cs1

>  <inhibition at 30 µM (%)>
29.5

$$$$

###

Target: BCRP (Homo sapiens, UniProt Q9UNQ0)
Construct: expressed in transfected cells; host or cells: MDCK-II
Sequence (Q9UNQ0 whole entry): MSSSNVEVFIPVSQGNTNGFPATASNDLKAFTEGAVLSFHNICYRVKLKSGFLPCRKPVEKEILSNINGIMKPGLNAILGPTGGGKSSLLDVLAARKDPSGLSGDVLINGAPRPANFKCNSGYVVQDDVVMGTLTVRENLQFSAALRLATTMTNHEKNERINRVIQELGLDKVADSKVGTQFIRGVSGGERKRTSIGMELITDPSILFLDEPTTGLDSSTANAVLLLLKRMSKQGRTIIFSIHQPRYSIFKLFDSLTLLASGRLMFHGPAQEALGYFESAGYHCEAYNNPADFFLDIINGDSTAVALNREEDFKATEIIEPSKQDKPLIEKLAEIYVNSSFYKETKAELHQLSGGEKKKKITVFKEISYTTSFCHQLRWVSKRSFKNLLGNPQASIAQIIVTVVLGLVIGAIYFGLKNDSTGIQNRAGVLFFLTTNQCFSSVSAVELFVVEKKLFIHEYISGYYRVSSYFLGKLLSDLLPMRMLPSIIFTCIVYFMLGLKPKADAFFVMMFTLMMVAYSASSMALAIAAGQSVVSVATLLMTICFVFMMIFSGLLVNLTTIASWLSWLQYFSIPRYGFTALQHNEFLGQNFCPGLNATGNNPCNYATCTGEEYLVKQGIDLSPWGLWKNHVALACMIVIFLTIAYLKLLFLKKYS
Assay: Bidirectional transport in MDCK-II cells expressing BCRP
Format: in vitro ADME
Conditions: human; read-out: Papp B→A, in transporter cells
measurement.name: Papp B→A at 10 μM (×10⁻⁶ cm/s)

>  <smiles.string>
COC[C@H](NC(=O)c1ccn(S(C)(=O)=O)c1)C(=O)Nc1nc(-c2cccc(N3C[C@@H](C)O[C@@H](C)C3)n2)cs1

>  <measure.unit>
×10⁻⁶ cm/s

>  <observed.measurement>
25.2

$$$$

###

Target: CYP2A6 (Homo sapiens, UniProt P11509)
Construct: from tissue; host or cells: human liver microsomes
Sequence (P11509 1-494): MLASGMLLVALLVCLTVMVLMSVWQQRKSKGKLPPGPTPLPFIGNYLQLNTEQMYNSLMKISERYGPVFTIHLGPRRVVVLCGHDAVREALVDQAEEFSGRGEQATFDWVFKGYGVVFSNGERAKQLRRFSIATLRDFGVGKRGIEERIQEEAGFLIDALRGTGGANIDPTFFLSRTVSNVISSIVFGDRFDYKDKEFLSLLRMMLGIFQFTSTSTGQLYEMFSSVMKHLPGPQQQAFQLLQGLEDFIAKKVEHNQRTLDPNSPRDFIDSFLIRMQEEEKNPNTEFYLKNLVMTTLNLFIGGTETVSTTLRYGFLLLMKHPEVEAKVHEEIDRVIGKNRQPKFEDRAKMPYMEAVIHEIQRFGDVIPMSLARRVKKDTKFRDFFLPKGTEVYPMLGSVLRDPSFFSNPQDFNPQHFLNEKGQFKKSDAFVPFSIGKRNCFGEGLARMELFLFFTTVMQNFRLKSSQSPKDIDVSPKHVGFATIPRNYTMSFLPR
Assay: Selective chemical inhibition of compound of formula (I) depletion in human liver microsomes, CYP2A6
Type: in vitro ADME
Details: probe compound of formula (I) (depletion), Direct inhibitor, targeted CYP 2A6, inhibitor 10 μM
measurement.name: inhibition at 10 µM

>  <smiles.string>
N#Cc1ccc(C(c2ccc(C#N)cc2)n2cncn2)cc1

>  <observed.measurement>
9.1%

$$$$

###

Assay: Bidirectional transport in MDCK control cells (passive permeability)
Type: in vitro ADME
Settings: dog, MDCK, BCRP assay; 50 μM compound of formula (I)
measurement.name: Papp A→B at 50 μM

>  <smiles.string>
COC[C@H](NC(=O)c1ccn(S(C)(=O)=O)c1)C(=O)Nc1nc(-c2cccc(N3C[C@@H](C)O[C@@H](C)C3)n2)cs1

>  <measurement.name>
Papp A→B at 50 μM

>  <observed.measurement>
21.3 ×10⁻⁶ cm/s

$$$$

###

Molecular target: CYP1A2 (Homo sapiens)
Sequence (P05177 whole entry): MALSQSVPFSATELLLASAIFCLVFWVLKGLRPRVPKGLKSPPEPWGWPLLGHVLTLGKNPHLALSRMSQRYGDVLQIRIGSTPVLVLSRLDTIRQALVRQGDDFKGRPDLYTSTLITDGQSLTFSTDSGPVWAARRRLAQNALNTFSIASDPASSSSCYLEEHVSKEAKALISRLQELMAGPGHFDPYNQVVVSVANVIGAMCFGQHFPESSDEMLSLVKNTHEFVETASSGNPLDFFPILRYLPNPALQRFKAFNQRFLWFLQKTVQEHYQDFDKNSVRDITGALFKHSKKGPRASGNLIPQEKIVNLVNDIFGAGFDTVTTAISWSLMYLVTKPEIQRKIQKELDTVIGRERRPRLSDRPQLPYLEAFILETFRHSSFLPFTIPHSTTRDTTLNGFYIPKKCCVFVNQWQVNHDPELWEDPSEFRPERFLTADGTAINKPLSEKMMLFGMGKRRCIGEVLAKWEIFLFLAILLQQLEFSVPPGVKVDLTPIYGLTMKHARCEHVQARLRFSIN
Test: CYP enzyme inhibition in pooled human liver microsomes, CYP1A2
Settings: human, microsomes, Enzyme activity (% inhibition), No Pre-incubation, CYP1A2; 30 μM; probe Phenacetin; PHLM
measurement.name: inhibition at 30 µM (%)

>  <smiles.string>
COC[C@H](NC(=O)c1ccn(S(C)(=O)=O)c1)C(=O)Nc1nc(-c2cccc(N3C[C@@H](C)O[C@@H](C)C3)n2)cs1

>  <observed.measurement>
11.4

$$$$

###

System: CYP3A4/5
Test: CYP enzyme inhibition in pooled human liver microsomes, CYP3A4/5
Conditions: human, pooled human liver microsomes, probe testosterone (6β-hydroxylation), Enzyme activity (% inhibition), No Pre-incubation, CYP3A4/5; 30 μM; probe Testosterone; PHLM

>  <smiles.string>
COC[C@H](NC(=O)c1ccn(S(C)(=O)=O)c1)C(=O)Nc1nc(-c2cccc(N3C[C@@H](C)O[C@@H](C)C3)n2)cs1

>  <measure.unit>
%

>  <inhibition at 30 µM>
18.4

$$$$

###

Target: OAT1 (Homo sapiens, UniProt Q4U2R8)
Construct: expressed in transfected cells; host or cells: MDCK-II
Assay: Transporter inhibition in MDCK-II cells, OAT1
Assay type: in vitro ADME
Conditions: OAT1 in MDCK-II cells; probe p-aminohippurate 2 μM; read-out: Estimated IC50 using nominal concentrations
measurement.name: IC50

>  <smiles.string>
COC[C@H](NC(=O)c1ccn(S(C)(=O)=O)c1)C(=O)Nc1nc(-c2cccc(N3C[C@@H](C)O[C@@H](C)C3)n2)cs1

>  <target.entity>
OAT1 (Homo sapiens, UniProt Q4U2R8)

>  <measurement.name>
IC50

>  <observed.measurement>
> 50 µM

$$$$

###

Molecular target: CYP2B6 (Homo sapiens, UniProt P20813)
Sequence (P20813 whole entry): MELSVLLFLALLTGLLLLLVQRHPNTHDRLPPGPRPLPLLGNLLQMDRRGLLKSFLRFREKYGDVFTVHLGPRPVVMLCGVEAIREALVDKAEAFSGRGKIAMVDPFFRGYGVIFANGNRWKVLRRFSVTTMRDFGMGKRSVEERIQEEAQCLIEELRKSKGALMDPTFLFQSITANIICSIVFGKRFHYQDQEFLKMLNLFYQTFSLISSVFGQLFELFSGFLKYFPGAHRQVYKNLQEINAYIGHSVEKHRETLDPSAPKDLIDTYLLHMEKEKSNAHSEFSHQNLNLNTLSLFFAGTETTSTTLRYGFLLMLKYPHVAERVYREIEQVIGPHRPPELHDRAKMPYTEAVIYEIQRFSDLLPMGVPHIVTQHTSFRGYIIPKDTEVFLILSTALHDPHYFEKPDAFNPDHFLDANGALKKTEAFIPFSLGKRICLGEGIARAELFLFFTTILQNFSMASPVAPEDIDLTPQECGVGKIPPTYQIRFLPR
Assay: CYP enzyme inhibition in pooled human liver microsomes, CYP2B6
Conditions: human, microsomes, Enzyme activity (% inhibition), 30 Minutes Pre-incubation without NADPH, CYP2B6; 30 μM; probe Efavirenz; PHLM

>  <compound>
COC[C@H](NC(=O)c1ccn(S(C)(=O)=O)c1)C(=O)Nc1nc(-c2cccc(N3C[C@@H](C)O[C@@H](C)C3)n2)cs1 [compound of formula (I)]

>  <inhibition at 30 µM>
-6%

$$$$

###

Molecular target: CYP2D6 (Homo sapiens)
Sequence (P10635 whole entry): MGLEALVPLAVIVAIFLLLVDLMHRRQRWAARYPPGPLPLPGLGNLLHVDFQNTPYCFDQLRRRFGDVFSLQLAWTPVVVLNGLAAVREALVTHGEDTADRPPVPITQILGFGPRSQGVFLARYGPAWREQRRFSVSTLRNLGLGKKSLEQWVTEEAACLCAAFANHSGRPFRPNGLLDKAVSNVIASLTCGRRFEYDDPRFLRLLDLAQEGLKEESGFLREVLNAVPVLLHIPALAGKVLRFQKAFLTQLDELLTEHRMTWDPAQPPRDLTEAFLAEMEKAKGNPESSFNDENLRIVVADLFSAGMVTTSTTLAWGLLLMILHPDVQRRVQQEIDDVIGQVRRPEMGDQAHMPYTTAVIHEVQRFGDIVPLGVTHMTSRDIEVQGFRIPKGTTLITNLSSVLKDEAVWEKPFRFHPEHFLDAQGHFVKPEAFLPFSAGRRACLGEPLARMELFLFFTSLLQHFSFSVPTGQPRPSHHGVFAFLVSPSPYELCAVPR
Assay: CYP enzyme inhibition in pooled human liver microsomes, CYP2D6
Conditions: human, microsomes, Enzyme activity (% inhibition), No Pre-incubation, CYP2D6; 30 μM; probe Dextromethorphan; PHLM
measurement.name: inhibition at 30 µM (%)

>  <molecule>
COC[C@H](NC(=O)c1ccn(S(C)(=O)=O)c1)C(=O)Nc1nc(-c2cccc(N3C[C@@H](C)O[C@@H](C)C3)n2)cs1 [compound of formula (I)]

>  <observed.measurement>
13.2

$$$$

###

Test: Bidirectional transport in MDCK control cells (passive permeability)
Format: in vitro ADME
Settings: dog, MDCK, BCRP assay; 10 μM compound of formula (I)

>  <smiles.string>
COC[C@H](NC(=O)c1ccn(S(C)(=O)=O)c1)C(=O)Nc1nc(-c2cccc(N3C[C@@H](C)O[C@@H](C)C3)n2)cs1

>  <Papp B→A at 10 μM (×10⁻⁶ cm/s)>
20.9

$$$$

###

Experiment: Bidirectional transport in MDCK control cells (passive permeability)
Type: in vitro ADME
Settings: dog, MDCK, P-gp assay; 1 μM compound of formula (I)

>  <compound>
COC[C@H](NC(=O)c1ccn(S(C)(=O)=O)c1)C(=O)Nc1nc(-c2cccc(N3C[C@@H](C)O[C@@H](C)C3)n2)cs1 [compound of formula (I)]

>  <Papp B→A at 1 μM / ×10⁻⁶ cm/s>
21

$$$$

###

Test system: CYP3A4/5
Experiment: CYP enzyme inhibition in pooled human liver microsomes, CYP3A4/5
Conditions: human, pooled human liver microsomes, probe testosterone (6β-hydroxylation), Enzyme activity (% inhibition), 30 Minutes Pre-incubation without NADPH, CYP3A4/5; 30 μM; probe Testosterone; PHLM

>  <smiles.string>
COC[C@H](NC(=O)c1ccn(S(C)(=O)=O)c1)C(=O)Nc1nc(-c2cccc(N3C[C@@H](C)O[C@@H](C)C3)n2)cs1

>  <inhibition at 30 µM / %>
20.8

$$$$

###

System: 92-1 cells
Experiment: 3-day cell proliferation assay (CellTiter-Glo)
Details: Homo sapiens, 72 h, read-out: mean IC50, cell proliferation
pIC50: −log10 of the molar value.

>  <smiles.string>
COC[C@H](NC(=O)c1ccn(S(C)(=O)=O)c1)C(=O)Nc1nc(-c2cccc(N3C[C@@H](C)O[C@@H](C)C3)n2)cs1

>  <target.entity>
92-1 cells

>  <pIC50>
8.95

$$$$

###

System: CYP3A4/5
Assay: CYP enzyme inhibition in pooled human liver microsomes, CYP3A4/5
Settings: human, pooled human liver microsomes, probe midazolam (1′-hydroxylation), Enzyme activity (% inhibition), 30 Minutes Pre-incubation without NADPH, CYP3A4/5; 30 μM; probe Midazolam; PHLM

>  <smiles.string>
COC[C@H](NC(=O)c1ccn(S(C)(=O)=O)c1)C(=O)Nc1nc(-c2cccc(N3C[C@@H](C)O[C@@H](C)C3)n2)cs1

>  <target.entity>
CYP3A4/5

>  <inhibition at 30 µM, %>
-1

$$$$

###

Target: OAT1 (Homo sapiens)
Construct: expressed in transfected cells; host or cells: MDCK-II
Sequence (Q4U2R8 1-563): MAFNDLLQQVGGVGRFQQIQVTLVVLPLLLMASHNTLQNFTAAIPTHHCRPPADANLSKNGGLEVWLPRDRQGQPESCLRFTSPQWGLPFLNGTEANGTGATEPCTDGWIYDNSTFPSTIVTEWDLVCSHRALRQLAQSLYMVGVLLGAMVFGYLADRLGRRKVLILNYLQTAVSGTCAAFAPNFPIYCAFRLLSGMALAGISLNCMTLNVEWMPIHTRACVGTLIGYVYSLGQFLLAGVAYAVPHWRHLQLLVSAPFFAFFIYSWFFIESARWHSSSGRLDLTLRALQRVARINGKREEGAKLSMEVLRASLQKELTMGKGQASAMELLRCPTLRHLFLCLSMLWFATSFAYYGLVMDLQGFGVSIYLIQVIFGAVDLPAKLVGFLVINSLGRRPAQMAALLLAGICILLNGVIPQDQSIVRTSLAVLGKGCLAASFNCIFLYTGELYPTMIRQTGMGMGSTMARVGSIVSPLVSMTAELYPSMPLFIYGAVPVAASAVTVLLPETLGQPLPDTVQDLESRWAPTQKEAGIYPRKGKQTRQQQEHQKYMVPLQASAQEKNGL
Test: Transporter inhibition in MDCK-II cells, OAT1
Assay type: in vitro ADME
Conditions: OAT1; probe p-aminohippurate 2 μM; corrected for difference between measured and nominal concentrations; read-out: IC50 corrected for non-specific binding

>  <smiles.string>
COC[C@H](NC(=O)c1ccn(S(C)(=O)=O)c1)C(=O)Nc1nc(-c2cccc(N3C[C@@H](C)O[C@@H](C)C3)n2)cs1

>  <IC50>
> 11.8 µM

$$$$

Where do the numbers come from? From patent US20240189318A1.
